target: thrombin (native human beta-thrombin) (Homo sapiens) (UniProt P00734+P00734); test: EMSA; conditions: L-DNA (all nucleotides); selection buffer, 10% glycerol, room temperature
measurementKind: Kd (nM)
Use nM as the unit, but write only the number.

Q) Any idea what its Kd is? The sequence is ACGGAACGCGTTTCAAGACTACCGTGTTTGTTCCGT [Cy5-L-9-1t aptamer]
A) 21

Q) Any idea what its Kd is? The sequence is GATGAACTTGTTGAAACCCAACGGGAGCCTCGTTCATT [Cy5-L-13t aptamer]
A) 28

Q) Any idea what its Kd is? The sequence is GATGAACTTGTTGAAACCCAACGGGAGAATCGTTCATT [Cy5-L-9-2t aptamer]
A) 355
